system: JAK2 (Homo sapiens, UniProt O60674)
Construct: endogenous in cells
Sequence (O60674 whole entry): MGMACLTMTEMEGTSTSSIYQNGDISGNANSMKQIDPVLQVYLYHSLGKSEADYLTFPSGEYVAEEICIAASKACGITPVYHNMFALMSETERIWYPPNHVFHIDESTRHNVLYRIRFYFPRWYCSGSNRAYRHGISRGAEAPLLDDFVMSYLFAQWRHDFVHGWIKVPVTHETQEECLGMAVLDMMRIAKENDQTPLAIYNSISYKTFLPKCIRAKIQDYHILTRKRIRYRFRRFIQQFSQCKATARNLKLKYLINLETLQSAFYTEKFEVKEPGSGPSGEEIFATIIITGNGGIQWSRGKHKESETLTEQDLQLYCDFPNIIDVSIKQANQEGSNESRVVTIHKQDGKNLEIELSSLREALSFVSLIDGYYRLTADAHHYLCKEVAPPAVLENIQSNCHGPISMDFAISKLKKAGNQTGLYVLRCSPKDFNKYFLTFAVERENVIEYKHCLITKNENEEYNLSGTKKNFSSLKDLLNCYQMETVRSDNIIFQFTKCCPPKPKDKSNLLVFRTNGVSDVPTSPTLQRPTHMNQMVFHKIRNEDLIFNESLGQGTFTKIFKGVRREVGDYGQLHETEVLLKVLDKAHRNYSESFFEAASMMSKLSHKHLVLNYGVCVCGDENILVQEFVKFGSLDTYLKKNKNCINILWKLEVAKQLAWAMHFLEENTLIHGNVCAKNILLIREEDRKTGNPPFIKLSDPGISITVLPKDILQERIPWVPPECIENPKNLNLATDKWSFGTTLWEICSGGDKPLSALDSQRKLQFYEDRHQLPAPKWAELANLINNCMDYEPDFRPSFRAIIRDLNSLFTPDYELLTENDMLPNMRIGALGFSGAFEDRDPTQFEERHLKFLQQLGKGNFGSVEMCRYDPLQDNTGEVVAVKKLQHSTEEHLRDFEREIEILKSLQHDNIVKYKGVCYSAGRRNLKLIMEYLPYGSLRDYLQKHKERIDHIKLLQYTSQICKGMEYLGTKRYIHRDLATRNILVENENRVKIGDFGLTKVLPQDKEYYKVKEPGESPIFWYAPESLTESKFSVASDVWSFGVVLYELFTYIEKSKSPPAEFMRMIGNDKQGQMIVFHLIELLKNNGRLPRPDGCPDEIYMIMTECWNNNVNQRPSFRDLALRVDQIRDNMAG
experiment notes: Kinobeads assay, JAK2 (competition binding in mixed Molt4/Ramos cell lysate, dot blot detection)
run parameters: read-out: JAK2 Band (Kinobeads assay potency, IC50)
Listed here are compounds together with their documented IC50.

{"columns": ["given smiles", "IC50"],
 "data": [
  ["N#CCOc1cccc(CNc2nc(Nc3cnn(CC(N)=O)c3)ncc2Cl)c1", "1000 to 10000 nM"],
  ["Cc1cnc(Nc2cnn(CC(F)F)c2)nc1NCc1cccc(S(C)(=O)=O)c1", "1000 to 10000 nM"],
  ["Fc1cc(F)c(CNc2ccnc(Nc3cnn(CCN4CCOCC4)c3)n2)c(F)c1", "1000 to 10000 nM"],
  ["CN(C)C(=O)Cn1cc(Nc2ncc(F)c(NCc3c(Cl)cccc3Cl)n2)cn1", "1000 to 10000 nM"],
  ["Fc1cccc(CNc2nc(Nc3cn[nH]c3)ncc2Cl)c1C(F)(F)F", "100 to 1000 nM"],
  ["COc1cc(F)c(CNc2nc(Nc3cnn(CC(=O)N4CCOCC4)c3)ncc2C)c(F)c1", "1000 to 10000 nM"],
  ["COc1c(F)cc(F)cc1CNc1nc(Nc2cnn(C)c2)ncc1Cl", "10 to 100 nM"],
  ["CNC(=O)Cn1cc(Nc2ncc(Cl)c(NCc3cc(S(C)(=O)=O)ccc3OC)n2)cn1", "100 to 1000 nM"],
  ["Cn1ccnc1Cn1cc(Nc2ncc(Cl)c(NCc3ccccc3)n2)cn1", "1000 to 10000 nM"]
]}

====

Below, each of the compounds is paired with its reported IC50 value.
system: TYK2 (Homo sapiens)
Construct: endogenous in cells; host or cells: Molt4 (ATCC CRL-1582) and Ramos (ATCC CRL-1596), mixed lysate 1:2
Sequence (P29597 whole entry): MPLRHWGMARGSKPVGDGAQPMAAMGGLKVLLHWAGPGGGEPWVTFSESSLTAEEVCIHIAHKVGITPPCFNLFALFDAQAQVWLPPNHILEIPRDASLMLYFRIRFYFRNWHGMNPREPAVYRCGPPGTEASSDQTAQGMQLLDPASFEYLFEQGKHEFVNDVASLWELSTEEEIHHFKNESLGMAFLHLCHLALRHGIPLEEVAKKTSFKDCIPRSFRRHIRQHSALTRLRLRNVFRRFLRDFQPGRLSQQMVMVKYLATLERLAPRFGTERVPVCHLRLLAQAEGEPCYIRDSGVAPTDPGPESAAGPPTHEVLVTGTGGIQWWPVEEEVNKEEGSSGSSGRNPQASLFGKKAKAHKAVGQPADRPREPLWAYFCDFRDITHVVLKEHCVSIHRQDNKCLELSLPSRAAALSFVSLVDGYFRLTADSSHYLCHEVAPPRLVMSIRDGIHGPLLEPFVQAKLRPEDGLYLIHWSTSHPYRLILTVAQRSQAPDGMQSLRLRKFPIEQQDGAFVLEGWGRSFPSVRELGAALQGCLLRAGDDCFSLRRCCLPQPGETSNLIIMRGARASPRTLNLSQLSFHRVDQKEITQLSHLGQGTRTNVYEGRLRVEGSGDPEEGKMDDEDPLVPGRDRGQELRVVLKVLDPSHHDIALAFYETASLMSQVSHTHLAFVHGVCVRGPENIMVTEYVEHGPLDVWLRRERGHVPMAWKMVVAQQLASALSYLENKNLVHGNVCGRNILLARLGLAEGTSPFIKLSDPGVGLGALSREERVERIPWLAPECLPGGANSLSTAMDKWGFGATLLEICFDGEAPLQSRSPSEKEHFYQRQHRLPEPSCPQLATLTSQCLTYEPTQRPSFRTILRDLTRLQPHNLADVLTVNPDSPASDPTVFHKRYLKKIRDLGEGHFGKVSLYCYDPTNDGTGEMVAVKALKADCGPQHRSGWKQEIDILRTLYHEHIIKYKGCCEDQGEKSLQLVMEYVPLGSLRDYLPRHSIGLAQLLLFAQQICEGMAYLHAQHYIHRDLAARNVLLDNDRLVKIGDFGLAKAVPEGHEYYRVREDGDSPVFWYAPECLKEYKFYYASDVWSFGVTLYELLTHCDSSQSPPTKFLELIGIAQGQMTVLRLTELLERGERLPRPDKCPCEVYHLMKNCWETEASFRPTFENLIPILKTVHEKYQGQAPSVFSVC
experiment notes: Kinobeads assay, TYK2 (competition binding in mixed Molt4/Ramos cell lysate, dot blot detection)
run parameters: Kinobeads assay, Molt4/Ramos lysate; read-out: TYK2 Band (Kinobeads assay potency, IC50)
measurement kind: IC50

{"columns": ["compound", "measurement kind", "result"],
 "data": [
  ["CC(C)(O)Cn1cc(Nc2ncc(Cl)c(NCc3cc(F)ccc3F)n2)cn1", "IC50", "100 to 1000 nM"],
  ["COc1ccccc1CNc1nc(Nc2cnn(CC(N)=O)c2)ncc1Cl", "IC50", "100 to 1000 nM"],
  ["COc1ccc(F)c(CNc2nc(Nc3cnn(CC(=O)N4CCOCC4)c3)ncc2C)c1F", "IC50", "≤ 10 nM"],
  ["COc1c(F)cc(F)cc1CNc1nc(Nc2cnn(CC(F)(F)F)c2)ncc1C", "IC50", "1000 to 10000 nM"],
  ["Fc1cccc(F)c1CNc1nc(Nc2cnn(C(F)F)c2)ncc1Cl", "IC50", "100 to 1000 nM"],
  ["Cc1cnc(Nc2cnn(CC(=O)N[C@@H](C)CO)c2)nc1NCc1c(F)cc(F)cc1F", "IC50", "≤ 10 nM"],
  ["C[C@@H](CO)NC(=O)Cn1cc(Nc2nccc(NCc3c(Cl)ccc(Cl)c3F)n2)cn1", "IC50", "≤ 10 nM"],
  ["CCOc1ccc(F)c(CNc2nc(Nc3cnn(CC(N)=O)c3)ncc2Cl)c1F", "IC50", "10 to 100 nM"],
  ["NS(=O)(=O)c1cc(F)c(CNc2nc(Nc3cnn(CC(=O)N4CCCCC4)c3)ncc2F)c(F)c1", "IC50", "10 to 100 nM"],
  ["OCCn1cc(Nc2ncc(F)c(NCc3c(F)cc(F)cc3F)n2)cn1", "IC50", "10 to 100 nM"],
  ["Cn1cc(Nc2nccc(NCc3c(Cl)ccc(F)c3F)n2)cn1", "IC50", "10 to 100 nM"],
  ["CC(C)(CF)NC(=O)Cn1cc(Nc2nccc(NCc3c(F)cc(F)cc3F)n2)cn1", "IC50", "10 to 100 nM"],
  ["CC(O)Cn1cc(Nc2ncc(Cl)c(NCc3cccc(F)c3)n2)cn1 (centres unmarked)", "IC50", "100 to 1000 nM"],
  ["CC(C)NC(=O)Cn1cc(Nc2ncc(F)c(NCc3c(Cl)ccc(Cl)c3F)n2)cn1", "IC50", "10 to 100 nM"],
  ["C[C@@H](CO)NC(=O)Cn1cc(Nc2ncc(F)c(NCc3c(F)cc(F)cc3F)n2)cn1", "IC50", "≤ 10 nM"],
  ["O=C(O)Cn1cc(Nc2ncc(Cl)c(NCc3ccccc3)n2)cn1", "IC50", "100 to 1000 nM"],
  ["O=C(Cn1cc(Nc2nccc(NCc3c(F)cc(F)cc3F)n2)cn1)NCC1COCCO1 (centres unmarked)", "IC50", "10 to 100 nM"],
  ["O=C(Cn1cc(Nc2ncc(Cl)c(NCc3cccnc3)n2)cn1)N1CCOCC1", "IC50", "100 to 1000 nM"],
  ["Cn1cc(Nc2ncc(F)c(NCc3c(F)cc(F)cc3F)n2)cn1", "IC50", "10 to 100 nM"],
  ["CC1(C)COCCN1C(=O)Cn1cc(Nc2ncc(F)c(NCc3c(F)cc(F)cc3F)n2)cn1", "IC50", "10 to 100 nM"],
  ["OCCn1cc(Nc2ncc(Cl)c(NCc3c(F)cc(F)cc3F)n2)cn1", "IC50", "10 to 100 nM"],
  ["O=C(Cn1cc(Nc2ncc(Cl)c(NCc3ccccc3)n2)cn1)N1CCOCC1", "IC50", "10 to 100 nM"],
  ["CNC(=O)Cn1cc(Nc2ncc(F)c(NCc3cccc(OC(F)F)c3)n2)cn1", "IC50", "10 to 100 nM"],
  ["OCCn1cc(Nc2ncc(Cl)c(NCc3cc(Br)ccc3F)n2)cn1", "IC50", "10 to 100 nM"],
  ["Cn1cc(Nc2ncc(Cl)c(NCc3cccc(Br)c3)n2)cn1", "IC50", "100 to 1000 nM"],
  ["COc1ccc(F)c(CNc2nc(Nc3cnn(CC(=O)OC(C)C)c3)ncc2F)c1F", "IC50", "10 to 100 nM"],
  ["CNC(=O)Cn1cc(Nc2ncc(Cl)c(NCc3cccc(F)c3F)n2)cn1", "IC50", "100 to 1000 nM"],
  ["Cn1ncnc1Cn1cc(Nc2ncc(Cl)c(NCc3ccccc3)n2)cn1", "IC50", "1000 to 10000 nM"],
  ["OCCn1cc(Nc2ncc(Cl)c(NCc3c(F)ccc(F)c3F)n2)cn1", "IC50", "≤ 10 nM"]
]}

Entry source: patent US9296725B2
